test system: Escherichia coli TOP10; assay: shrunken log2 fold change of peptide-encoding DNA abundance (4.5 h post-induction vs induction); higher = less antimicrobial activity (less host growth inhibition); conditions: time post-induction: 4.5 h; library: site-saturation at positions 5, 18, 19, 20
Below, each of the sequences is paired with its reported shrunken log2 fold change value.

>  <CHAIN>
RRIRTRPPRLPRPRPRPQGHPRP

>  <shrunken log2 fold change>
-0.122

$$$$
>  <CHAIN>
RRIRRRPPRLPRPRPRPAMYPRP

>  <shrunken log2 fold change>
-0.145

$$$$
>  <CHAIN>
RRIRKRPPRLPRPRPRPSHWPRP

>  <shrunken log2 fold change>
0.275

$$$$
>  <CHAIN>
RRIRQRPPRLPRPRPRPNYSPRP

>  <shrunken log2 fold change>
-0.397

$$$$
>  <CHAIN>
RRIRSRPPRLPRPRPRPVLTPRP

>  <shrunken log2 fold change>
-0.0627

$$$$
>  <CHAIN>
RRIRQRPPRLPRPRPRPAVCPRP

>  <shrunken log2 fold change>
-0.197

$$$$
>  <CHAIN>
RRIRERPPRLPRPRPRPTEDPRP

>  <shrunken log2 fold change>
-0.317

$$$$
>  <CHAIN>
RRIRHRPPRLPRPRPRPTPSPRP

>  <shrunken log2 fold change>
0.276

$$$$
>  <CHAIN>
RRIRGRPPRLPRPRPRPVLEPRP

>  <shrunken log2 fold change>
0.795

$$$$
>  <CHAIN>
RRIRCRPPRLPRPRPRPKCKPRP

>  <shrunken log2 fold change>
0.0809

$$$$
>  <CHAIN>
RRIRWRPPRLPRPRPRPARLPRP

>  <shrunken log2 fold change>
0.523

$$$$
>  <CHAIN>
RRIRLRPPRLPRPRPRPIQQPRP

>  <shrunken log2 fold change>
-0.0102

$$$$
>  <CHAIN>
RRIRTRPPRLPRPRPRPDLFPRP

>  <shrunken log2 fold change>
-0.0784

$$$$
>  <CHAIN>
RRIRMRPPRLPRPRPRPEYMPRP

>  <shrunken log2 fold change>
-0.00213

$$$$
>  <CHAIN>
RRIRNRPPRLPRPRPRPIEPPRP

>  <shrunken log2 fold change>
-0.00208

$$$$

* * *

Below, each of the sequences is paired with its reported shrunken log2 fold change value.
tested on: Escherichia coli TOP10; experiment: shrunken log2 fold change of peptide-encoding DNA abundance (4.5 h post-induction vs induction); higher = less antimicrobial activity (less host growth inhibition); conditions: time post-induction: 4.5 h; library: site-saturation at positions 5, 18, 19, 20
OUTCOME MEASURE: shrunken log2 fold change

>  <CHAIN>
RRIRHRPPRLPRPRPRPHSIPRP

>  <OUTCOME MEASURE>
shrunken log2 fold change

>  <ASSAY RESULT>
-0.318

$$$$
>  <CHAIN>
RRIRTRPPRLPRPRPRPKSFPRP

>  <OUTCOME MEASURE>
shrunken log2 fold change

>  <ASSAY RESULT>
0.0134

$$$$
>  <CHAIN>
RRIRLRPPRLPRPRPRPEVKPRP

>  <OUTCOME MEASURE>
shrunken log2 fold change

>  <ASSAY RESULT>
-0.108

$$$$
>  <CHAIN>
RRIRMRPPRLPRPRPRPPTCPRP

>  <OUTCOME MEASURE>
shrunken log2 fold change

>  <ASSAY RESULT>
0.183

$$$$
>  <CHAIN>
RRIRARPPRLPRPRPRPMLLPRP

>  <OUTCOME MEASURE>
shrunken log2 fold change

>  <ASSAY RESULT>
-0.0981

$$$$

* * *

tested on: Escherichia coli TOP10; assay: shrunken log2 fold change of peptide-encoding DNA abundance (4.5 h post-induction vs induction); higher = less antimicrobial activity (less host growth inhibition); settings: time post-induction: 4.5 h; library: site-saturation at positions 5, 18, 19, 20
OUTCOME MEASURE: shrunken log2 fold change

>  <CHAIN>
RRIRMRPPRLPRPRPRPRYPPRP

>  <ASSAY RESULT>
0.0438

$$$$
>  <CHAIN>
RRIRQRPPRLPRPRPRPKHLPRP

>  <ASSAY RESULT>
0.0736

$$$$
>  <CHAIN>
RRIRIRPPRLPRPRPRPIKWPRP

>  <ASSAY RESULT>
-0.118

$$$$
>  <CHAIN>
RRIRYRPPRLPRPRPRPHIHPRP

>  <ASSAY RESULT>
-0.745

$$$$
>  <CHAIN>
RRIRLRPPRLPRPRPRPNEWPRP

>  <ASSAY RESULT>
-0.227

$$$$
>  <CHAIN>
RRIRNRPPRLPRPRPRPGLHPRP

>  <ASSAY RESULT>
-0.0523

$$$$
>  <CHAIN>
RRIRARPPRLPRPRPRPYFWPRP

>  <ASSAY RESULT>
-0.0609

$$$$
>  <CHAIN>
RRIRMRPPRLPRPRPRPKREPRP

>  <ASSAY RESULT>
0.055

$$$$
>  <CHAIN>
RRIRSRPPRLPRPRPRPRTTPRP

>  <ASSAY RESULT>
0.318

$$$$
>  <CHAIN>
RRIRERPPRLPRPRPRPNPTPRP

>  <ASSAY RESULT>
0.00617

$$$$
>  <CHAIN>
RRIRNRPPRLPRPRPRPKRAPRP

>  <ASSAY RESULT>
0.146

$$$$
>  <CHAIN>
RRIRERPPRLPRPRPRPFDGPRP

>  <ASSAY RESULT>
0.000346

$$$$

* * *

test system: Escherichia coli TOP10; test: shrunken log2 fold change of peptide-encoding DNA abundance (4.5 h post-induction vs induction); higher = less antimicrobial activity (less host growth inhibition); conditions: time post-induction: 4.5 h; library: site-saturation at positions 5, 18, 19, 20;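 further: peptides expressed intracellularly from a pBAD plasmid library in pooled LB shake-flask culture, induced with 0.3% L-arabinose, DNA abundance read by NGS, three biological replicates, DESeq2 with apeglm shrinkage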

>  <CHAIN>
RRIRWRPPRLPRPRPRPPKAPRP

>  <shrunken log2 fold change>
-0.0568

$$$$
>  <CHAIN>
RRIRYRPPRLPRPRPRPFPVPRP

>  <shrunken log2 fold change>
-0.149

$$$$
>  <CHAIN>
RRIRPRPPRLPRPRPRPHETPRP

>  <shrunken log2 fold change>
-0.164

$$$$
>  <CHAIN>
RRIRIRPPRLPRPRPRPVPFPRP

>  <shrunken log2 fold change>
-0.264

$$$$
>  <CHAIN>
RRIRVRPPRLPRPRPRPTMQPRP

>  <shrunken log2 fold change>
0.158

$$$$
>  <CHAIN>
RRIRDRPPRLPRPRPRPMHQPRP

>  <shrunken log2 fold change>
0.126

$$$$
>  <CHAIN>
RRIRHRPPRLPRPRPRPLNIPRP

>  <shrunken log2 fold change>
-0.386

$$$$
>  <CHAIN>
RRIRPRPPRLPRPRPRPDAQPRP

>  <shrunken log2 fold change>
0.271

$$$$
>  <CHAIN>
RRIRLRPPRLPRPRPRPTMGPRP

>  <shrunken log2 fold change>
0.147

$$$$
>  <CHAIN>
RRIRHRPPRLPRPRPRPRDHPRP

>  <shrunken log2 fold change>
0.175

$$$$
>  <CHAIN>
RRIRCRPPRLPRPRPRPPCIPRP

>  <shrunken log2 fold change>
0.0428

$$$$
>  <CHAIN>
RRIRWRPPRLPRPRPRPPGSPRP

>  <shrunken log2 fold change>
0.333

$$$$
>  <CHAIN>
RRIRNRPPRLPRPRPRPIWRPRP

>  <shrunken log2 fold change>
0.00377

$$$$
>  <CHAIN>
RRIRIRPPRLPRPRPRPYESPRP

>  <shrunken log2 fold change>
-0.0135

$$$$
>  <CHAIN>
RRIRWRPPRLPRPRPRPYGLPRP

>  <shrunken log2 fold change>
-0.23

$$$$
>  <CHAIN>
RRIRDRPPRLPRPRPRPCCAPRP

>  <shrunken log2 fold change>
0.58

$$$$
>  <CHAIN>
RRIRIRPPRLPRPRPRPASWPRP

>  <shrunken log2 fold change>
0.0913

$$$$
>  <CHAIN>
RRIRWRPPRLPRPRPRPEYDPRP

>  <shrunken log2 fold change>
0.695

$$$$
>  <CHAIN>
RRIRNRPPRLPRPRPRPPPTPRP

>  <shrunken log2 fold change>
0.867

$$$$
>  <CHAIN>
RRIRGRPPRLPRPRPRPQDNPRP

>  <shrunken log2 fold change>
0.0555

$$$$
>  <CHAIN>
RRIRQRPPRLPRPRPRPWRIPRP

>  <shrunken log2 fold change>
-0.416

$$$$
>  <CHAIN>
RRIRNRPPRLPRPRPRPTKIPRP

>  <shrunken log2 fold change>
-0.245

$$$$
>  <CHAIN>
RRIRHRPPRLPRPRPRPDVKPRP

>  <shrunken log2 fold change>
-0.0186

$$$$
>  <CHAIN>
RRIRHRPPRLPRPRPRPPAFPRP

>  <shrunken log2 fold change>
0.0237

$$$$
>  <CHAIN>
RRIRARPPRLPRPRPRPNCVPRP

>  <shrunken log2 fold change>
0.23

$$$$
>  <CHAIN>
RRIRERPPRLPRPRPRPMNTPRP

>  <shrunken log2 fold change>
-0.0609

$$$$
>  <CHAIN>
RRIRNRPPRLPRPRPRPLWVPRP

>  <shrunken log2 fold change>
-0.0871

$$$$
>  <CHAIN>
RRIRTRPPRLPRPRPRPLPPPRP

>  <shrunken log2 fold change>
0.333

$$$$
>  <CHAIN>
RRIRYRPPRLPRPRPRPIFAPRP

>  <shrunken log2 fold change>
0.159

$$$$
>  <CHAIN>
RRIRARPPRLPRPRPRPNNEPRP

>  <shrunken log2 fold change>
-0.14

$$$$
>  <CHAIN>
RRIRWRPPRLPRPRPRPPCPPRP

>  <shrunken log2 fold change>
0.138

$$$$
>  <CHAIN>
RRIRLRPPRLPRPRPRPTRKPRP

>  <shrunken log2 fold change>
0.374

$$$$
>  <CHAIN>
RRIRSRPPRLPRPRPRPVPLPRP

>  <shrunken log2 fold change>
-0.0843

$$$$
>  <CHAIN>
RRIRARPPRLPRPRPRPQTMPRP

>  <shrunken log2 fold change>
0.108

$$$$
>  <CHAIN>
RRIRWRPPRLPRPRPRPSCRPRP

>  <shrunken log2 fold change>
0.0511

$$$$
>  <CHAIN>
RRIRYRPPRLPRPRPRPWHTPRP

>  <shrunken log2 fold change>
-1.52

$$$$
